- protocol notes: Modulation of P-gp (unknown origin) transfected in human MDA435/LCC6MDR cells assessed as reversible of paclitaxel resistance measured as IC50 for paclitaxel at 1 uM after 5 days by CellTiter 96 Aqueous assay
quantity kind: IC50 (nM)

(A) COc1cc(OC)c2c(c1)O[C@H](c1cc(OC)c(OC)c(OC)c1)[C@@H](OC(=O)c1ccc(F)c(NC(=O)/C=C/c3ccc(OC)c(OC)c3)c1)C2=O
(B) COc1cc(OC)c2c(c1)O[C@H](c1cc(OC)c(OC)c(OC)c1)[C@@H](OC(=O)c1ccc(F)c(NC(=O)c3ccc(OC)c(OC)c3)c1)C2
(C) COc1cc(OC)c2c(c1)O[C@H](c1cc(OC)c(OC)c(OC)c1)[C@H](OC(=O)Cc1cc(OC)c(OC)c(OC)c1)C2
Query string: Order the entries by their reported IC50, beginning at the minimum. Show the ranking through the labels, in the order asked for.
Result string: B, A, C

* * *

- target system: ATP-dependent translocase ABCB1 (Homo sapiens)
- Sequence (P08183 whole entry): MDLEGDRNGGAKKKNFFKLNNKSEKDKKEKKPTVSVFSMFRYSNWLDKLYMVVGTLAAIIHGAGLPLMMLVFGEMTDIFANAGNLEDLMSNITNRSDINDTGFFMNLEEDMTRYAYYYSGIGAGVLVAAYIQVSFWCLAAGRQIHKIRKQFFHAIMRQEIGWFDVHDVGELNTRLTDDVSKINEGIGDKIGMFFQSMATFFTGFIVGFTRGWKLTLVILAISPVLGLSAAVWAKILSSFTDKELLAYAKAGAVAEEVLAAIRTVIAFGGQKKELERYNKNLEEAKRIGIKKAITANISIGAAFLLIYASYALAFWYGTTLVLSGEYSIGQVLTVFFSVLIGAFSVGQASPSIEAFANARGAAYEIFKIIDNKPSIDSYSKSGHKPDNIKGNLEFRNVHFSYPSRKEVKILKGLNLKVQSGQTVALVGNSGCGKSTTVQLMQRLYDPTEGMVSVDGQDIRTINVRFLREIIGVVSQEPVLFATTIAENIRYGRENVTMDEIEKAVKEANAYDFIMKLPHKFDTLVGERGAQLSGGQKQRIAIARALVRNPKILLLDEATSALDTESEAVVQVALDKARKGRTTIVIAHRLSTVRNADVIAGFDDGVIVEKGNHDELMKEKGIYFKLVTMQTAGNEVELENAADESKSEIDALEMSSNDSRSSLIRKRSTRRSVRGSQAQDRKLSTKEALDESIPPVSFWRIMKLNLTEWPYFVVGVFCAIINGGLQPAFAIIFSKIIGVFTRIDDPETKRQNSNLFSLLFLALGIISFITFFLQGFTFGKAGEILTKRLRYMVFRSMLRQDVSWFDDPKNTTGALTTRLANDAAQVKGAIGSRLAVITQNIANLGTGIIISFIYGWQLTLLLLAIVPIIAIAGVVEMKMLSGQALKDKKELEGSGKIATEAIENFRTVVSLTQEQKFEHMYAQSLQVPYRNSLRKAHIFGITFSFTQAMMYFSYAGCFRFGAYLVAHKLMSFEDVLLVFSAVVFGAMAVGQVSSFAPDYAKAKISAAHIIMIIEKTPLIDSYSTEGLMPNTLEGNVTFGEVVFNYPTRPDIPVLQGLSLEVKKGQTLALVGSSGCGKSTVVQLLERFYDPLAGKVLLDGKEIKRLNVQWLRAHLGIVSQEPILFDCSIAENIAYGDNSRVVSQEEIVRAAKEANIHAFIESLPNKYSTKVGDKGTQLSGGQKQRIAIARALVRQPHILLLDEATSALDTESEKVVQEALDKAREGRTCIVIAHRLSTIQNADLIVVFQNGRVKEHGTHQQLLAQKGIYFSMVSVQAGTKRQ
- protocol notes: Modulation of P-gp (unknown origin) transfected in human MDA435/LCC6MDR cells assessed as reversible of paclitaxel resistance measured as IC50 for paclitaxel at 1 uM after 5 days by CellTiter 96 Aqueous assay relative to PTX alone treated cell
- Type: cell-based
- experimental parameters: 120 h
quantity kind: Ratio

Below are worked cases with known answers.
COc1cc(OC)c2c(c1)O[C@H](c1cc(OC)c(OC)c(OC)c1)[C@@H](OC(=O)c1ccc(F)c(NC(=O)/C=C/c3cc(OC)c(OC)c(OC)c3)c1)C2=O: 5.2
COc1cccc(C(=O)O[C@@H]2Cc3c(OC)cc(OC)cc3O[C@@H]2c2cc(OC)c(OC)c(OC)c2)c1: 3.2
COc1ccc(C(=O)O[C@@H]2Cc3c(OC)cc(OC)cc3O[C@@H]2c2cc(OC)c(OC)c(OC)c2)cc1: 1

(P) COc1cc(OC)c2c(c1)O[C@H](c1cc(OC)c(OC)c(OC)c1)[C@@H](OC(=O)c1cc(OC)c(OC)c(OC)c1)C2=O
(Q) COc1cc(OC)c2c(c1)O[C@H](c1cc(OC)c(OC)c(OC)c1)[C@@H](OC(=O)c1ccc(F)c(NC(=O)c3ccc(OC)c(OC)c3)c1)C2
Query string: // task: argmin of Ratio over [ P , Q ] State the label of the item chosen.
Result string: P

(I) COc1cc(OC)c2c(c1)O[C@H](c1cc(OC)c(OC)c(OC)c1)[C@@H](OC(=O)c1ccc(OC)c(OC)c1)C2
(II) COc1cc(OC)c2c(c1)O[C@H](c1cc(OC)c(OC)c(OC)c1)[C@@H](OC(=O)c1ccc(F)c(NC(=O)/C=C/c3ccc(OC)c(OC)c3)c1)C2
(III) COc1cc(OC)c2c(c1)O[C@H](c1cc(OC)c(OC)c(OC)c1)[C@@H](OC(=O)c1ccc(F)c(NC(=O)c3cc(OC)c(OC)c(OC)c3)c1)C2=O
Query string: Arrange items by their Ratio values in increasing order. Show the ranking through the labels, in the order asked for.
Result string: III, I, II
(III: 4, I: 12.1, II: 21.9)

(A) COc1cc(OC)c2c(=O)c(OCCOC(=O)/C=C/c3cc(OC)c(OC)c(OC)c3)c(-c3ccc(OC)c(OC)c3)oc2c1
(B) COc1cc(OC)c2c(c1)O[C@H](c1cc(OC)c(OC)c(OC)c1)[C@H](O)C2
Query string: // task: argmin of Ratio over [ A , B ] State the label of the item chosen.
Result string: B
(B: 0.9, A: 11.2)

(I) COc1cc(OC)c2c(c1)O[C@H](c1cc(OC)c(OC)c(OC)c1)[C@H](OC(=O)c1ccc(F)c(NC(=O)/C=C/c3cc(OC)c(OC)c(OC)c3)c1)C2
(II) COc1cc(OC)c2c(c1)O[C@H](c1cc(OC)c(OC)c(OC)c1)[C@H](OC(=O)c1ccc(F)c(NC(=O)c3ccc(F)c(NC(=O)c4cc(OC)c(OC)c(OC)c4)c3)c1)C2
(III) COc1ccc(C(=O)O[C@H]2Cc3c(OC)cc(OC)cc3O[C@@H]2c2cc(OC)c(OC)c(OC)c2)cc1
Query string: Arrange items by their Ratio values in increasing order. Show the ranking through the labels, in the order asked for.
Result string: III, II, I
